- SYSTEM UNDER TEST: GlcNAc(a1-4)Gal(b1-3)GlcNAc
- TEST PROTOCOL: glycan array binding signal (z-score within array); higher = stronger binding
- RUN PARAMETERS: glycan notation: IUPAC condensed, linker removed
The entries come from a sample that favours the strongest signals as a whole.
RESULT TYPE: glycan array binding signal (z-score)
In your answer, state the number alone without any accompanying words.

Inquiry: Fill blank: measured glycan array binding signal (z-score) of the binder Pbx1CASH domain (Cryptococcus neoformans) (protein) MDETKPLWGNPRADGISLACKDSIVERNVVYDATDGAIVLFGSAGSTVKNNHVYARTRVILGGINLVDYEPWDGDYTNVKVHHNHLYALGRYFKVGIVIGPASWSDDTESVVHSASVTDNEFSGGYWGYGIVVASAKNFEVLRNKVIWDGEQGVARFSGVPGS is ____.
Reply text: -0.187

Origin of measurements: the supplement of paper PMC8728848
